# MEASURED ON: T1, human AXL with a cynomolgus monkey extracellular domain (ECD) (Homo sapiens, UniProt P30530, P441T/S191N/S285L/T105A/T112A/T125N/T443A)
# T1 construct: aa 1-447); human AXL transmembrane and intracellular part (the remainder of human AXL after the ECD; expressed in transfected cells; host or cells: HEK293T
# MEASUREMENT DESCRIPTION: Flow cytometry binding to transfected HEK293T cells
# CONDITION DETAILS: at least 3 experiments
PARAMETER: Binding EC50 (µg/mL) cynomolgus AXL Average (s.d.)

Problem: Give Binding EC50 (µg/mL) cynomolgus AXL Average (s.d.) for the following molecule: IgG1-AXL-726: AXL-specific human IgG1,κ antibody, VH SEQ ID NO:31, VL SEQ ID NO:33, FN2 domain binding (antibody, listed as Homo sapiens, V domains shown) VH: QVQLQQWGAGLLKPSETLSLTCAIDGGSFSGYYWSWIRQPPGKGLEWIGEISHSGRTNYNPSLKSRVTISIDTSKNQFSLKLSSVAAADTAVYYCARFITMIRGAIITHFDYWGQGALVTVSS VL: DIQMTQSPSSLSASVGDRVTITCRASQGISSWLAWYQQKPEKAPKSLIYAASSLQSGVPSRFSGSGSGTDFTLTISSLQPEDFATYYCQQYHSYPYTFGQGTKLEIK
Solution: 0.349 (0.160) µg/mL
